Measured Kd values are reported for all entries that follow.
target: T1, recombinant human PD-L1 His protein (human, UniProt Q9NZQ7 19-239); assay: SPR Biacore T200, PD-L1 His on chip, sdAb analyte
T1 construct: not shown: His tag
T1 sequence (Q9NZQ7 19-239 limits assumed): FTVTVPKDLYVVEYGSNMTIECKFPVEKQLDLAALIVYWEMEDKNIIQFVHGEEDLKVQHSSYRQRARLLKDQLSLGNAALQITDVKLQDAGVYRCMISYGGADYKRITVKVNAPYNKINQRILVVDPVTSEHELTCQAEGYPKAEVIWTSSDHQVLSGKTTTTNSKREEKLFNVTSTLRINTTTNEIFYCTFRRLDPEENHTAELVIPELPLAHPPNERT
Output spec: scalar in nM, unitless text.

// solved cases for Kd follow
AS11947 sdAb (VHH, His6-tagged llama sdAb) VHH: DVQLVESGGGLVQAGDSLRLTCSASGRTFISYAVGWFRQAPGTEREFVAGIRWNGISTDYTDSVKGRFTISRDNAKNTVYLQMNSLKPEDTAIYYCAAHRTIATIPNKYEYDHWGQGTQVTVSS    0.617
AS06750 sdAb (VHH, His6-tagged llama sdAb) VHH: AVQLVESGGGLVQAGDSLRLSCTASGRTFLTYAVGWFRQAPGTEREFVAGIRWSGGYTDYADSVKGRFTISRDNAKNTVYLQMNSLKPEDTAVYYCAAHRTIATIPEKYEYEYWGQGTQVTVSS    0.109
AS06778 sdAb (VHH, His6-tagged llama sdAb) VHH: QVQLVESGGGLVQAGGSLKLSCAASGRTFITYAMGWFRQAPGKERELVAAISWSGSSTYSADSVKGRFTISRDNAKNTVYLQMNSLKPEDTAVYYCAAEVSARTGEHLPKLMGDYWGQGTQVTVSS    0.0233
AS12003 sdAb (VHH, His6-tagged llama sdAb) VHH: EVQLVESGGGLVQAGDSLRLSCAASGRTFLSYAVGWFRQAPGTEREFVAGIRWSGGSTDYADSVKGRFTISRDNAKNTVYLQMNSLKPEDTAVYYCAAHRTIATVPNKYEYDTWGQGTQVTVSS    0.56

Quick one: Kd for AS06686 sdAb (VHH, His6-tagged llama sdAb) VHH: AVQLVESGGGLVQAGDSLRLACAASGRTFLTYALGWFRQAPGKEREFVAGVSWSGSSTKYADSVKGRFTISRDNAKNTVYMQMNSLKPEDTAVYYCAAQISAIVPISAHEYQYWGQGTQVTVSS ?
0.346

Quick one: Kd for AS11948 sdAb (VHH, His6-tagged llama sdAb) VHH: EVQLVESGGGLVQAGDSLRLSCVASGRTFVTYGMGWFRQAPGKEREFVAAINWSGSMTSYGDSVKGRFAISRDNAKNTVYLQMNSLKPEDTAVYYCAAALGAVVYTTREPYTYWGRGTQVTVSS ?
0.167

Quick one: Kd for AS06791 sdAb (VHH, His6-tagged llama sdAb) VHH: QVQLVESGGGLVQAGGSLRLSCAASGRTFITYAIGWFRQAPGKEREFVTAINWSGSMTSYADSVKGRFTISRDNAKNTVYLQINGLKSEDTAVYYCAAHRGAIAPMTQSVYDYWGQGTQVTVSS ?
0.153

Quick one: Kd for AS06618 sdAb (VHH, His6-tagged llama sdAb) VHH: EVQLVESGGRLVRAGDSLRLSCAASGRTFLSYAVGWFRQAPGTEREFVAGIRWSGGYTDYAEAVKGRFTISRDNAKNTVYLQMNSLKPEDTAVYYCAAHRTIATIPEKYEYEYWGQGTQVTVSS ?
0.17
